# target_of_assay: chloride channels in normal erythrocytes
# method_summary: Cl- conductance (GCl) from concomitant measurement of conductive Cl- netfluxes and membrane potentials in erythrocyte suspensions
# test_settings: suspension of normal erythrocytes; read-out: KD-value for block of GCl
measurement_label: Kd

Quick one: Kd for O=C(Nc1cccc(C(F)(F)F)c1)Nc1ccccc1C(=O)O ?
1.3 µM
